Tested on: Aβ production in SK-N-BE(2) neuroblastoma cells
test.name: Test Example 3: Aβ production inhibition in cell (Aβ40 ELISA, SK-N-BE(2))
assay.conditions: Homo sapiens, SKNBE2, 6 h, read-out: Test Example 3 IC50, SK-N-BE(2) cells, 6 hours, Aβ40 ELISA normalized by viability
Param label: returns Criterion met when IC50 < 300 nM, returns Criterion not met otherwise, including exact equality.

query: Find out if reported IC50 for CC1(C)Oc2ccc(-c3cncnc3)cc2C2(COC(N)=N2)C12COC2 (stereo not drawn) [RP 69] is less than 300 nM
result: Criterion met

***
query: Find out if reported IC50 for CC1(C)Oc2ccc(-c3cc(Cl)cnc3F)cc2C2(COC(N)=N2)C12COC2 (stereo not drawn) is less than 300 nM
result: Criterion met

query: Find out if reported IC50 for COc1ccnc(-c2ccc3c(c2)C2(COC(N)=N2)C2(COC2)C(C)(C)O3)c1 (stereo not drawn) is less than 300 nM
result: Criterion met
